Listed below: growth values for each entry.
Test system: OVCAR-4 ovarian
Experiment: NCI-60 one-dose screen, 48 h (100 = growth as untreated, 0 = no growth, -100 = all killed)
Conditions: 10 µM unless noted
About 83,000 compounds went through this panel and 20% of them were active in at least one assay; those are over-represented in the sample as a whole.
Your answer is read as %, so omit the unit and give the number.

O=S(=O)(c1ccc(NC(=S)NCc2cccnc2)cc1)N1CCCCC1 = 95.6

So what does the record say about growth for CCOC(=O)CSCCC#N ? 105

Reported growth, molecule CN(C(=S)S(=O)(=O)C12CC3CC(CC(C3)C1)C2)c1ccccc1 : ____ 104

// query growth value for entry O=C(O)C1CCCN1C(=O)OCc1ccccc1 (configuration not stated) 122

Need growth, item C=C(C)COc1ccc(C(C)(C)C)cc1 103

// growth lookup, key: CCCC(OC(C)=O)c1ccc2c(c1)OCO2 (configuration not stated) 110

I have this molecule here, O=C(c1ccc(Cl)cc1)N1CCCCC1 , and I need its recorded growth. 113

FYI, the data here is from PubChem BioAssay (NCI).
